System: OVCAR-4 ovarian
Test: NCI tumour cell line growth inhibition, 48 h
Reported TGI values follow for various compounds

Identify TGI associated with the compound NCCN.NCCN.[Cl-].[O]=[Os+2]=[O]
> 100 µM

Tell me TGI reported for COc1cccc2c1C(=O)c1c(O)c3c(c(O)c1C2=O)C[C@@](O)(C(C)O)C[C@@H]3OC1CC(N)C(O)C(C)O1 (stereo not given in full)
35.2 µM

###

Tested on: EKVX NSCLC
Assay: NCI tumour cell line growth inhibition, 48 h; in the data active = GI50 below about 0.43 µM; inactive = the rest
*1 amine or outer side, *2 acyl side, *3 side chain or, on linkers, in order; H or OH if unused. Where a SMILES comes first, the peptide text is derived from it. Residues, ends and D or L forms follow the SMILES beside them. Bridges are numbered along the chain shown (N, C = ends). [ ]: non-standard residue; d: D form. *: point of attachment. Adda = CO[C@@H](Cc1ccccc1)[C@@H](C)/C=C(C)/C=C/[C@H](N[*:1])[C@H](C)C(=O)[*:2]; dAsp(3S-Me) = C[C@H](C(=O)[*:3])[C@@H](N[*:1])C(=O)[*:2]; d(γGlu) = O=C(O)[C@@H](CCC(=O)[*:2])N[*:1]; NMeDha = C=C(NC)C(=O)O; Boc = CC(C)(C)OC(=O)*
Can you answer with just one of these options? active, inactive

Any idea what this test logged for NCCN.NCCN.[Cl-].[O]=[Os+2]=[O] ?
inactive

Please share the test call associated with Nc1nc2c(c3ncccc13)C(c1cccc(Br)c1)Cc1ncccc1-2 (stereo unspecified) .
inactive

Could you kindly confirm the outcome this assay logged for CN1CCN(CCCOc2ccc3nc(Nc4cc(Cl)cc(Cl)c4)ccc3c2)CC1 ?
inactive

// param item: C=C1C(=O)N[C@H](C)C(=O)N[C@@H](CC(C)C)C(=O)N[C@@H](C(=O)O)[C@H](C)C(=O)N[C@@H](CCCN=C(N)N)C(=O)N[C@@H](/C=C/C(C)=C/[C@H](C)[C@H](Cc2ccccc2)OC)[C@H](C)C(=O)N[C@@H](C(=O)O)CCC(=O)N1C (R[Adda][d(γGlu)][NMeDha][dA]L[dAsp(3S-Me)]-OH; lactam N-7) ; yields the recorded call
inactive

Which outcome did this test record for the compound CN(C)CCCOc1ccc(OCCCN(C)C)c2c1C(=O)c1ccccc1C2=O ?
inactive

For CCOc1nc(-c2ccccc2)cc2c(O)c(C(=O)N/N=C/c3ccc(O)cc3O)[nH]c(=O)c12 , what call appears in the results of this test?
inactive

Others:
Entry C(#Cc1cnccn1)/C=C\C#Cc1cnccn1 : call = ?
inactive

What outcome does the record of this test show for O=P(O)(NCCCl)NCCCl ?
inactive

Returns: the outcome recorded for COc1cc2ncn(-c3cc(O[C@H](C)c4ccccc4Cl)c(C(N)=O)s3)c2cc1OC in this assay.
active

// outcome(item) with item = O=c1c2cc(F)ccc2sc2c(N3CCNCC3)nc3ccccc3c12
inactive

Which outcome was entered for the compound COC(=O)CNC(=O)C(Cc1ccccc1)NC(=O)C(Cc1ccccc1)NC(=O)OC(C)(C)C (stereo not drawn) (Boc-Phe-Phe-Gly-OMe; configuration not given here) in this test?
inactive

###

Test system: HCT-116 colon
Experiment: NCI tumour cell line growth inhibition, 48 h
endpoint.label: TGI

Record excerpt, results attached:
Please report TGI with HCT-116 colon for item O=C1Nc2ccccc2C1=Nc1ccc(S(=O)(=O)Nc2nccs2)cc1 .
> 100 µM

Report TGI under test system HCT-116 colon for Cc1cc2ncn(C3CCCO3)c2cc1C (configuration not stated) .
> 100 µM

Quote TGI with test system HCT-116 colon for Cn1c(O)c(C2=Nc3ccccc3C2=O)c2ccccc21
> 100 µM

Please respond with reported TGI (system HCT-116 colon) for COc1cc(C2SC(N)=Nc3c2c(C)nn3C(=O)c2ccc(Cl)cc2)cc(OC)c1OC (configuration not stated) .
> 10 µM

State TGI (HCT-116 colon) of COc1ccc(/C=N/c2nc3cc4sc(/N=C/c5ccc(OC)cc5)nc4cc3s2)cc1 .
> 100 µM

More entries:
Enter TGI (test system HCT-116 colon) for COP(=O)(OC)/C(=C/c1c[nH]c2ccccc12)C(=O)O
> 100 µM

GET TGI where system = HCT-116 colon and item = O=C(O)c1cccc2cccc(-c3c4ccc(=O)cc-4oc4cc(O)ccc34)c12
> 100 µM

Cited source: PubChem BioAssay (NCI)
